- Assay summary: Particle size and polydispersity index (PDI) of lipid nanoparticles by dynamic light scattering
- Type: physicochemical
- Test conditions: LNP formulation prepared from the cationic lipid, 25° C.
Result type: PDI (%)

CCCCCCC(CCCCCC)CCOC(=O)CCCCCN(CCCCCC(=O)OCCC(CCCCCC)CCCCCC)C[C@H](O)CN(C)CCO [YK-306]; 13.6
CCCCCCCCCCC(CCCCCCCCCC)CCCOC(=O)CCCN(CCCC(=O)OCCCC(CCCCCCCCCC)CCCCCCCCCC)C[C@H](O)CN(C)CCO [YK-307]; 32.2
CCCCCCC(CCCCCC)CCOC(=O)CCCCCN(CCCCCC(=O)OCCC(CCCCCC)CCCCCC)C[C@H](O)CN(CCO)CCO [YK-317]; 16.4

I = CCCCCCCCCCC(CCCCCCCCCC)CCCOC(=O)CCCN(CCCC(=O)OCCCC(CCCCCCCCCC)CCCCCCCCCC)C[C@H](O)CN(CCO)CCO [YK-321]
II = CCCCCCCCCCCOC(=O)CCCCCN(CCCCCC(=O)OCCCCCCCCCCC)C[C@H](O)CN(C)CCO [YK-304]
III = CCCCCCCCCCOC(=O)CCCN(CCCCCC(=O)OCC(CCCCCCCC)CCCCCCCC)C[C@H](O)CN(C)CCO [YK-301]
[Q] # ascending order, key=PDI (%) Would you mind listing the labels in the order asked for?
[A] III, II, I
